I'd be grateful if you could share measured Injury Rating, Foxtail for these entries.
Test system: Foxtail
Experiment: Postemergent injury rating, foxtail
Type: in vivo, foxtail (millet)
Set-up: key: injury rating scale, 4 = death
Conditions: 8 lbs/acre
Kindly provide the number alone.

Answer with the recorded Injury Rating, Foxtail for the compound listed here: On1c(C(F)(F)F)nc2nc(Br)c(Cl)c(Br)c21
4

Return reported Injury Rating, Foxtail. Input compound: On1c(C(F)(F)F)nc2ncc(C(F)(F)F)cc21
4

Identify the reported Injury Rating, Foxtail for the following entry. On1c(C(F)(F)F)nc2nccc(Cl)c21
3

Note Injury Rating, Foxtail for the compound shown: Nc1c(Br)nc2nc(C(F)(F)F)n(O)c2c1Br
3

Indicate its recorded Injury Rating, Foxtail; the compound in question is Cc1cnc2nc(C(F)(F)F)n(O)c2c1
3

----------
Tested on: Soybean
Test: Preemergent injury rating, soybean
Assay type: in vivo
Design: key: injury rating scale on which 4 = death
Conditions: 2 lbs/acre
Could you please report measured Injury Rating, Soybean for the items listed next?

Output reported Injury Rating, Soybean of the molecule On1c(C(F)(F)F)nc2ncc(Cl)cc21 on Soybean.
0

Fetch value of Injury Rating, Soybean on Soybean for CS(=O)(=O)c1cnc2nc(C(F)(F)F)n(O)c2c1 .
2

Answer briefly: Injury Rating, Soybean recorded on Soybean for On1c(C(F)(F)C(F)F)nc2nc(Cl)c(Cl)cc21
0

Give reported Injury Rating, Soybean for On1c(C(F)(F)F)nc2nc(Cl)ccc21 (Soybean)
0
